Target: T1, human IL-36R (human, UniProt Q9HB29 20-575)
T1 sequence (looked up): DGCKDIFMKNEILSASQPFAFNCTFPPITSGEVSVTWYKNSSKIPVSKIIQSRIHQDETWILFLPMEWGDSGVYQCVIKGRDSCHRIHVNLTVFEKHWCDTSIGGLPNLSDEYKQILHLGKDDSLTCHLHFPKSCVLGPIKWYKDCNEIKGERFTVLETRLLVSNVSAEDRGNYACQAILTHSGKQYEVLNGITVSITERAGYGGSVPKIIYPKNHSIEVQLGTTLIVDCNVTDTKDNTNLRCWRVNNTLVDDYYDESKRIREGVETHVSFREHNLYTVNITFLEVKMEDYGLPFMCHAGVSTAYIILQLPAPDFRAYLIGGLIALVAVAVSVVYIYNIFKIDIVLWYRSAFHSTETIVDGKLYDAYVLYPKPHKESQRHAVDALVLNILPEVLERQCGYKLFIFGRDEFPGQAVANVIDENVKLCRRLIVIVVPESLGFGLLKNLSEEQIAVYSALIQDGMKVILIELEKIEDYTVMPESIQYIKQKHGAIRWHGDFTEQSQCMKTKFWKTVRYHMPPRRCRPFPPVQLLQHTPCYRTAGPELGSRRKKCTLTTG
Experiment: cell-based or functional assay
observed_property: IC50 of GM-CSF release, NCI/ADR-RES cells stimulated with IL-36β (µg/mL)
Please give a number only; it is taken to be in µg/mL.

Inquiry: Recorded IC50 of GM-CSF release, NCI/ADR-RES cells stimulated with IL-36β of humanized anti-IL-36R antibody 900527 (antibody, V domains shown, IgG1 (vector with L234A, L235A) and human kappa) VH: QVQLVQSGAEVKKPGASVKVSCKASGYTFTSSWMHWAKQAPGQGLEWIGEIHPNSAKTNYNQKFQGRVTMTRDTSISTAYMELSRLRSDDTAVYYCARVDYGKPWFAYWGQGTLVTVSS VL: QIVLTQSPGTLSLSPGERATLSCRASSSVSSSYLHWYQQKPGQAPRLWIYSTSSRATGIPDRFSGSGSGTDFTLTISRLEPEDFATYYCQQFQSSPLTFGQGTKLEIK , please.
Reply text: 0.0174
